# method summary: ART drug monitoring in breast milk (HPLC-UV)
# Type: in vivo, human
# assay conditions: female, human, oral, 1 month of age, read-out: ART level in breast milk (BM)

>  <input smiles>
Cc1nnc(C(=O)NC(C)(C)c2nc(C(=O)NCc3ccc(F)cc3)c(O)c(=O)n2C)o1

>  <concentration at 1 month (infant age) [ng/mL]>
293

$$$$

---

# method summary: ART drug monitoring in serum of breastfed HEU infants (HPLC-UV)
# Type: in vivo, human
# assay conditions: human, in vivo; breastfed infant (entry one); read-out: ART level in infant serum (IS)

>  <molecule>
CC(C)CN(C[C@@H](O)[C@H](Cc1ccccc1)NC(=O)O[C@H]1CO[C@H]2OCC[C@H]21)S(=O)(=O)c1ccc(N)cc1 [DRV, darunavir]

>  <concentration at 14 days (infant age)>
< 50 ng/mL

$$$$

---

# method summary: ART drug monitoring in breast milk (HPLC-UV)
# Format: in vivo, human
# assay conditions: female, human, oral, 14 days of age, read-out: ART level in breast milk (BM)

>  <input smiles>
Cc1nnc(C(=O)NC(C)(C)c2nc(C(=O)NCc3ccc(F)cc3)c(O)c(=O)n2C)o1

>  <concentration at 14 days (infant age)>
1760 ng/mL

$$$$

---

# method summary: ART drug monitoring in maternal serum (HPLC-UV)
# Type: in vivo, human
# assay conditions: female, human, in vivo

>  <input smiles>
Cc1nnc(C(=O)NC(C)(C)c2nc(C(=O)NCc3ccc(F)cc3)c(O)c(=O)n2C)o1

>  <measurement units>
ng/mL

>  <concentration at 4 months (infant age)>
184

$$$$

---

Listing of recorded concentration at 1 month (infant age) by entry.
# method summary: ART drug monitoring in breast milk (HPLC-UV)
# Assay type: in vivo, human
# assay conditions: human three, oral, read-out: ART level in breast milk (BM)

>  <compound>
CC(C)CN(C[C@@H](O)[C@H](Cc1ccccc1)NC(=O)O[C@H]1CO[C@H]2OCC[C@H]21)S(=O)(=O)c1ccc(N)cc1 [DRV, darunavir]

>  <concentration at 1 month (infant age)>
< 250 ng/mL

$$$$
>  <compound>
C[C@@H]1CCO[C@H]2Cn3cc(C(=O)NCc4ccc(F)cc4F)c(=O)c(O)c3C(=O)N12 [DTG, dolutegravir]

>  <concentration at 1 month (infant age)>
< 50 ng/mL

$$$$
>  <compound>
Cc1cc(/C=C/C#N)cc(C)c1Nc1ccnc(Nc2ccc(C#N)cc2)n1 [RPV, rilpivirine]

>  <concentration at 1 month (infant age)>
< 50 ng/mL

$$$$

---

# method summary: ART drug monitoring in maternal serum (HPLC-UV)
# Type: in vivo, human
# assay conditions: human one, serum, oral; read-out: ART level in maternal serum (MS)
measurement name: concentration at 6 months (infant age)

>  <input smiles>
Cc1ccnc2c1NC(=O)c1cccnc1N2C1CC1

>  <measurement name>
concentration at 6 months (infant age)

>  <result>
3930 ng/mL

$$$$

---

# method summary: ART drug monitoring in maternal serum (HPLC-UV)
# Type: in vivo, human
# assay conditions: female, human, in vivo

>  <input smiles>
Cc1nnc(C(=O)NC(C)(C)c2nc(C(=O)NCc3ccc(F)cc3)c(O)c(=O)n2C)o1

>  <concentration at 1 month (infant age) (ng/mL)>
872

$$$$

---

# method summary: Relative infant dose (RID): infant ART level divided by mother's ART level
# Type: in vivo, human
# assay conditions: target RID expressed as infant serum level

>  <input smiles>
C[C@@H]1CCO[C@H]2Cn3cc(C(=O)NCc4ccc(F)cc4F)c(=O)c(O)c3C(=O)N12

>  << 10% RID>
< 400 ng/mL

$$$$
>  <input smiles>
CC(C)CN(C[C@@H](O)[C@H](Cc1ccccc1)NC(=O)O[C@H]1CO[C@H]2OCC[C@H]21)S(=O)(=O)c1ccc(N)cc1

>  << 10% RID>
< 380 ng/mL

$$$$
>  <input smiles>
Cc1ccnc2c1NC(=O)c1cccnc1N2C1CC1

>  << 10% RID>
< 670 ng/mL

$$$$
>  <input smiles>
Cc1cc(/C=C/C#N)cc(C)c1Nc1ccnc(Nc2ccc(C#N)cc2)n1

>  << 10% RID>
< 20 ng/mL

$$$$
>  <input smiles>
Cc1nnc(C(=O)NC(C)(C)c2nc(C(=O)NCc3ccc(F)cc3)c(O)c(=O)n2C)o1

>  << 10% RID>
< 55 ng/mL

$$$$

---

# method summary: ART drug monitoring in serum of breastfed HEU infants (HPLC-UV)
# Assay type: in vivo, human
# assay conditions: human, in vivo
measurement name: concentration at 1 month (infant age)

>  <input smiles>
Cc1nnc(C(=O)NC(C)(C)c2nc(C(=O)NCc3ccc(F)cc3)c(O)c(=O)n2C)o1

>  <measurement name>
concentration at 1 month (infant age)

>  <result>
< 75 ng/mL

$$$$

---

# method summary: ART drug monitoring in maternal serum (HPLC-UV)
# Assay type: in vivo, human
# assay conditions: female, human, in vivo; 1 month of age; read-out: ART level in maternal serum (MS)

>  <compound>
CC(C)CN(C[C@@H](O)[C@H](Cc1ccccc1)NC(=O)O[C@H]1CO[C@H]2OCC[C@H]21)S(=O)(=O)c1ccc(N)cc1 [DRV, darunavir]

>  <measurement units>
ng/mL

>  <concentration at 1 month (infant age)>
3800

$$$$

---

# method summary: ART drug monitoring in serum of breastfed HEU infants (HPLC-UV)
# Assay type: in vivo, human
# assay conditions: human, serum, other: breastfeeding (maternal ART); breastfed infant (entry two); read-out: ART level in infant serum (IS)

>  <compound>
Cc1ccnc2c1NC(=O)c1cccnc1N2C1CC1 [NVP, nevirapine]

>  <measurement units>
ng/mL

>  <concentration at 4 months (infant age)>
1150

$$$$

---

# method summary: ART drug monitoring in maternal serum (HPLC-UV)
# Format: in vivo, human
# assay conditions: female, human, in vivo; 6 months of age; read-out: ART level in maternal serum (MS)

>  <input smiles>
CC(C)CN(C[C@@H](O)[C@H](Cc1ccccc1)NC(=O)O[C@H]1CO[C@H]2OCC[C@H]21)S(=O)(=O)c1ccc(N)cc1

>  <measurement units>
ng/mL

>  <concentration at 6 months (infant age)>
3360

$$$$

---

# method summary: ART drug monitoring in serum of breastfed HEU infants (HPLC-UV)
# Format: in vivo, human
# assay conditions: human, serum, other: breastfeeding (maternal ART); breastfed infant (entry one); read-out: ART level in infant serum (IS)

>  <input smiles>
Cc1ccnc2c1NC(=O)c1cccnc1N2C1CC1

>  <limit sign>
=

>  <concentration at 1 month (infant age) [µg/mL]>
1.21

$$$$
>  <input smiles>
C[C@@H]1CCO[C@H]2Cn3cc(C(=O)NCc4ccc(F)cc4F)c(=O)c(O)c3C(=O)N12

>  <limit sign>
<

>  <concentration at 1 month (infant age) [µg/mL]>
0.05

$$$$

Sourced from paper PMC12446422
